Values compiled from PubChem BioAssay AID1963870.

Collected viability, T/C values appear next to each entry.
Tested on: 292921-168-R-J2-PDC KRAS tumor spheroid viability;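 also: drug exposure lasted seven days after spheroids formed for three days; percent of DMSO vehicle control viability which is 100%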
Test: Anticancer human tumor 292921-168-R-J2-PDC patient-derived pancreatic carcinoma cell line growth inhibition [KRAS2]
Details: second compound 1 µM; first compound 0.1 µM; hits give low values; spheroids with HUVEC and MSC
Endpoint Name: viability, T/C (%)

[
  {
    "Compound": "CC(=O)OC12COC1CC(O)C1(C)C(=O)C(O)C3=C(C)C(OC(=O)C(O)C(NC(=O)OC(C)(C)C)c4ccccc4)CC(O)(C(OC(=O)c4ccccc4)C21)C3(C)C (configuration not stated) + CNCc1ccccc1-c1csc(C(C)Nc2nc(C)nc3cc(OC)c(OC)cc23)c1",
    "Reading": 11.5
  },
  {
    "Compound": "Cn1ncnc1[C@H]1c2n[nH]c(=O)c3cc(F)cc(c23)N[C@@H]1c1ccc(F)cc1 + C=CC(=O)N1CCN(c2nc(=O)n(-c3c(C)ccnc3C(C)C)c3nc(-c4c(O)cccc4F)c(F)cc23)C(C)C1",
    "Reading": 73.3
  }
]
